# targetOrTestSystem: uterine OT receptors (Rattus norvegicus)
# Construct: from tissue; host or cells: uterus of DES-treated rats, crude membranes
# Sequence (P70536 1-388): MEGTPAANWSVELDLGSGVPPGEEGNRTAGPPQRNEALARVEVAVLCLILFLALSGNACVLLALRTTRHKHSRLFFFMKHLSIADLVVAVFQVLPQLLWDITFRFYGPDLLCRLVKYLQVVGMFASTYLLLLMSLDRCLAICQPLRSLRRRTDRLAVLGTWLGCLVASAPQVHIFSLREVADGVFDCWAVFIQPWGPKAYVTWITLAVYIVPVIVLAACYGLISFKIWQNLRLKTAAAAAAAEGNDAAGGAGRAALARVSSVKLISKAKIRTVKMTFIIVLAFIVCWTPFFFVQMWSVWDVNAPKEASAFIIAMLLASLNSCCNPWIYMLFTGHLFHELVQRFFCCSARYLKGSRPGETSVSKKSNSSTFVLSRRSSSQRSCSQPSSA
# experimentNotes: [^3 H]OT binding to uterine OT receptors, crude membrane preparation of uteri from DES-treated rats
# cond: rat uterus membranes, 1 nM [^3 H]OT; read-out: Receptor Binding Results IC50 (nM) [^3 H]OT
Square brackets hold non-standard residues; d marks the D form. Peptide text beside a SMILES is read from it. * marks the point of attachment. dNMeY = CN[C@H](Cc1ccc(O)cc1)C(=O)O; NMeI = CC[C@H](C)[C@H](NC)C(=O)O; dNMeF = CN[C@H](Cc1ccccc1)C(=O)O; Phg = N[C@H](C(=O)O)c1ccccc1; Pip = O=C(O)[C@@H]1CCCCN1; dPip = O=C(O)[C@H]1CCCCN1; Cbz = O=C(OCc1ccccc1)*
assayMetric: IC50

Example molecules with recorded IC50:
| molecule | targetOrTestSystem | measValue |
| --- | --- | --- |
| CC[C@H](C)[C@@H]1NC(=O)[C@@H](Cc2c[nH]c3ccccc23)NC(=O)[C@@H]2CCCN2C(=O)[C@@H](Cc2ccc(O)cc2)N(C)C(=O)[C@@H]2CCCCN2C(=O)[C@H]2CCCCN2C1=O [Example 137] (cyclo(I[dPip][Pip][dNMeY]P[dW])) | uterine OT receptors (Rattus norvegicus) | 7.9 nM |
| O=C1N[C@@H](c2ccccc2)C(=O)N2CCC[C@@H]2C(=O)N2CCC[C@H]2C(=O)N[C@H](Cc2ccccc2)C(=O)N2CCC[C@H]2C(=O)N[C@@H]1Cc1ccccc1 [Example 63] (cyclo([dF]P[dF][Phg][dP]P)) | uterine OT receptors (Rattus norvegicus) | > 10000 nM |

QUERY: Param item = CC[C@H](C)[C@H]1C(=O)N2CCCC[C@@H]2C(=O)N2CCCC[C@H]2C(=O)N(C)[C@H](Cc2ccccc2)C(=O)N2CCC[C@H]2C(=O)N(C)[C@H](Cc2ccccc2)C(=O)N1C [Example 15] (cyclo([NMeI][dPip][Pip][dNMeF]P[dNMeF])) ; retrieve measured IC50.
RESULT: > 10000 nM

QUERY: Param item = CC[C@H](C)[C@@H]1NC(=O)[C@@H](Cc2ccccc2)NC(=O)[C@@H]2CCCN2C(=O)[C@@H](Cc2c[nH]cn2)NC(=O)[C@H](CCCCNC(=O)OCc2ccccc2)NC(=O)[C@H]2CCCCN2C1=O [Example 37] (cyclo(I[dPip]K(Cbz)[dH]P[dF])) ; retrieve measured IC50.
RESULT: > 100 nM

Hello, the source for this data is patent US5225528A, in case you need it.
